Assay: Oral bioavailability in Han Wistar rat at 5 mg/kg
Type: ADME, organism-based
Details: in vivo
quantity: bioavailability (%)
Answers are plain numbers, in %.

Item COc1cc2ncnc(Nc3cccc(Cl)c3F)c2cc1OC(=O)N1CCN(C)CC1 has what recorded bioavailability?
45

====

Experiment: Tmax in Han Wistar rat at 5 mg/kg, po
Assay type: ADME, organism-based
Settings: in vivo
quantity: Tmax (min)
Numbers only, in min.

Item COc1cc2ncnc(Nc3cccc(Cl)c3F)c2cc1OC(=O)N1CCN(C)CC1 has what recorded Tmax?
15

====

Assay: Elimination half life in beagle dog at 2 mg/kg, po
Type: ADME, organism-based, Canis lupus familiaris
Conditions: in vivo, read-out: beta t1/2 (converted)
quantity: half-life (h)
Give bare numbers, in h.

Item COc1cc2ncnc(Nc3cccc(Cl)c3F)c2cc1OC(=O)N1CCN(C)C[C@H]1C has what recorded half-life?
5.5

====

Assay: Elimination half life in Han Wistar rat at 1 mg/kg, iv
Format: ADME, organism-based
Details: Han Wistar, in vivo, read-out: beta t1/2 (converted)
quantity: half-life (h)
Answers are plain numbers, in h.

These recorded examples may help you get a feel for the data.
Item COc1cc2ncnc(Nc3cccc(Cl)c3F)c2cc1OC(=O)N1CCN(C)C[C@H]1C has what recorded half-life?
4.1

Item COc1cc2ncnc(Nc3cccc(Cl)c3F)c2cc1OC(=O)N1CCN(C)C[C@@H]1C has what recorded half-life?
2.4

Item COc1cc2ncnc(Nc3cccc(Cl)c3F)c2cc1OC(=O)N1CCN(C)[C@@H](C)C1 has what recorded half-life?
1.1

Please state, for each entry, its recorded half-life.
1. COc1cc2ncnc(Nc3cccc(Cl)c3F)c2cc1OC(=O)N1CCN(C)CC1
2. COc1cc2ncnc(Nc3cccc(Cl)c3F)c2cc1OC(=O)N1CCN(C)C2CC21 (stereo in doubt; 1i)
3. COc1cc2ncnc(Nc3cccc(Cl)c3F)c2cc1OC(=O)N1CCN(C)[C@H](C)C1

[2.6, 0.9, 1.3]

====

Experiment: Fraction unbound in Han Wistar rat blood at 5 uM by equilibrium dialysis method
Format: ADME, tissue-based
Conditions: Han Wistar
# label = label 1 if fraction unbound at 5 µM >= 0.08 else label 0

Textbook exercise: given the entry CN(C)C/C=C/C(=O)Nc1cc2c(Nc3ccc(F)c(Cl)c3)ncnc2cc1O[C@H]1CCOC1 [AFATINIB] , state whether its fraction unbound at 5 µM is greater than or equal to 0.08.
label 0

Textbook exercise: given the entry COc1cc2ncnc(Nc3cccc(Cl)c3F)c2cc1OC(=O)N1CCN(C)[C@H](C)C1 , state whether its fraction unbound at 5 µM is greater than or equal to 0.08.
label 0

Textbook exercise: given the entry COc1cc2ncnc(Nc3cccc(Cl)c3F)c2cc1OC(=O)N1CCN(C)C[C@H]1C [AZD-3759] , state whether its fraction unbound at 5 µM is greater than or equal to 0.08.
label 0

New cases:
Textbook exercise: given the entry COc1cc2ncnc(Nc3cccc(Cl)c3F)c2cc1C(=O)N1CCOCC1 , state whether its fraction unbound at 5 µM is greater than or equal to 0.08.
label 1

Textbook exercise: given the entry C#Cc1cccc(Nc2ncnc3cc(OCCOC)c(OCCOC)cc23)c1 [ERLOTINIB] , state whether its fraction unbound at 5 µM is greater than or equal to 0.08.
label 0

====

Test: Permeability from apical to basolateral side in MDCK2-MDR1 cells
Assay type: ADME, cell-based, Canis lupus familiaris, MDCK-II
Settings: dog, MDCK-MDR1
Papp A→B vs 30 ×10⁻⁶ cm/s: less than gives Condition met; not less than gives Condition not met.

Quick check: does COc1cc2ncnc(Nc3ccc(F)c(Cl)c3)c2cc1N1CCOCC1 have Papp A→B under 30 ×10⁻⁶ cm/s?
Condition met

Quick check: does COc1cc2ncnc(Nc3cccc(Cl)c3F)c2cc1OC(=O)N1CCN(C)C2CC21 (stereo in doubt; 1i) have Papp A→B under 30 ×10⁻⁶ cm/s?
Condition not met

Quick check: does COc1cc2ncnc(Nc3ccc(F)c(Cl)c3)c2cc1OCCCN1CCOCC1 have Papp A→B under 30 ×10⁻⁶ cm/s?
Condition met

Quick check: does COc1cc2ncnc(Nc3cccc(Cl)c3F)c2cc1OC(=O)N1CCN(C)[C@@H](C)C1 have Papp A→B under 30 ×10⁻⁶ cm/s?
Condition not met

Quick check: does C#Cc1cccc(Nc2ncnc3cc(OCCOC)c(OCCOC)cc23)c1 have Papp A→B under 30 ×10⁻⁶ cm/s?
Condition met

New cases:
Quick check: does COc1cc2ncnc(Nc3cccc(Cl)c3F)c2cc1CN1CCOCC1 have Papp A→B under 30 ×10⁻⁶ cm/s?
Condition not met

Quick check: does COc1cc2ncnc(Nc3cccc(Cl)c3F)c2cc1OC(=O)N1CC[C@H](N(C)C)C1 have Papp A→B under 30 ×10⁻⁶ cm/s?
Condition met

Quick check: does COc1cc2ncnc(Nc3cccc(Cl)c3F)c2cc1OC(=O)N1CCOCC1 have Papp A→B under 30 ×10⁻⁶ cm/s?
Condition not met

Quick check: does COc1cc2ncnc(Nc3cccc(Cl)c3F)c2cc1OC(=O)N1CC[C@@H](N(C)C)C1 have Papp A→B under 30 ×10⁻⁶ cm/s?
Condition not met

Quick check: does CN(C)C/C=C/C(=O)Nc1cc2c(Nc3ccc(F)c(Cl)c3)ncnc2cc1O[C@H]1CCOC1 have Papp A→B under 30 ×10⁻⁶ cm/s?
Condition met

Quick check: does COc1cc2ncnc(Nc3cccc(Cl)c3F)c2cc1OC(=O)N1CCN(C)CC1 have Papp A→B under 30 ×10⁻⁶ cm/s?
Condition met

Quick check: does COc1cc2ncnc(Nc3cccc(Cl)c3F)c2cc1C(=O)N1CCOCC1 have Papp A→B under 30 ×10⁻⁶ cm/s?
Condition met

Quick check: does COc1cc2ncnc(Nc3cccc(Cl)c3F)c2cc1OC(=O)N1CCN(C)[C@H](C)C1 have Papp A→B under 30 ×10⁻⁶ cm/s?
Condition not met

Quick check: does COc1cc2ncnc(Nc3cccc(Cl)c3F)c2cc1OC(=O)N1CCN(C)C[C@@H]1C have Papp A→B under 30 ×10⁻⁶ cm/s?
Condition not met

Quick check: does COc1cc2ncnc(Nc3cccc(Cl)c3F)c2cc1OC(=O)N1C[C@@H]2C[C@H]1CN2C have Papp A→B under 30 ×10⁻⁶ cm/s?
Condition met

Quick check: does COc1cc2ncnc(Nc3cccc(Cl)c3F)c2cc1OC(=O)N1CCN(C)C[C@H]1C have Papp A→B under 30 ×10⁻⁶ cm/s?
Condition not met

Quick check: does COc1cc2ncnc(Nc3cccc(Cl)c3F)c2cc1N1CCOCC1 have Papp A→B under 30 ×10⁻⁶ cm/s?
Condition not met

====

Assay: AUC(0 to 24 hrs) in Han Wistar rat at 5 mg/kg, po
Type: ADME, organism-based
Parameters: dose 5 mg/kg, time < 24 hr, route oral
Conditions: in vivo
quantity: AUC(0-t) at 24 h (µM·h)
Numbers only, in µM·h.

Item COc1cc2ncnc(Nc3cccc(Cl)c3F)c2cc1OC(=O)N1CCN(C)CC1 has what recorded AUC(0-t) at 24 h?
3.91

====

Molecular target: Cytochrome P450 2C19 (Homo sapiens, UniProt P33261)
Sequence (P33261 whole entry): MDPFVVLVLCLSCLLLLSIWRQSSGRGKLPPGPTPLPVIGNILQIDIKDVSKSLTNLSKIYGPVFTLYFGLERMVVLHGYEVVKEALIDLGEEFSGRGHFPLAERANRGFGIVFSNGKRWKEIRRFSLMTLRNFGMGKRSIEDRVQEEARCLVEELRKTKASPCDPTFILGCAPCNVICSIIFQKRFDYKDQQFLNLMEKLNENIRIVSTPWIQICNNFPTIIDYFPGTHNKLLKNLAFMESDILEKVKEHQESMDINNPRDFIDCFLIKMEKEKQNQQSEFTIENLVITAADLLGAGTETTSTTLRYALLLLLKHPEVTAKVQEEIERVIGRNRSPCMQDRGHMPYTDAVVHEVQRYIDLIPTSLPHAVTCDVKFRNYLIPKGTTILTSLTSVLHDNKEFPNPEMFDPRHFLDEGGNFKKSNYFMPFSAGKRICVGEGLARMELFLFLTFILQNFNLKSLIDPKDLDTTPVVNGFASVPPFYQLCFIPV
quantity: IC50

Test system Cytochrome P450 2C19 (Homo sapiens, UniProt P33261); read-out IC50; what value for COc1cc2ncnc(Nc3cccc(Cl)c3F)c2cc1OC(=O)N1CCN(C)C[C@H]1C ?
> 50 µM

====

Assay: Clearance in beagle dog at 1 mg/kg, iv
Format: ADME, organism-based, Canis lupus familiaris
Settings: in vivo
quantity: clearance (L/h/kg)
Give bare numbers, in L/h/kg.

Item COc1cc2ncnc(Nc3cccc(Cl)c3F)c2cc1OC(=O)N1CCN(C)C[C@H]1C has what recorded clearance?
0.84

====

Tested on: BCRP
Experiment: Permeability from apical to basolateral side in BCRP transfected MDCK2 cells
Format: ADME, cell-based, Canis lupus familiaris, MDCK-II
Settings: dog
quantity: Papp A→B (×10⁻⁶ cm/s)
Numbers only, in ×10⁻⁶ cm/s.

Item COc1cc2ncnc(Nc3ccc(F)c(Cl)c3)c2cc1OCCCN1CCOCC1 [GEFITINIB] has what recorded Papp A→B?
4.2

Please state, for each entry, its recorded Papp A→B.
1. C#Cc1cccc(Nc2ncnc3cc(OCCOC)c(OCCOC)cc23)c1 [ERLOTINIB]
2. CN(C)C/C=C/C(=O)Nc1cc2c(Nc3ccc(F)c(Cl)c3)ncnc2cc1O[C@H]1CCOC1 [AFATINIB]

1. 14
2. 1.3

====

Test: AUC(0 to 24 hrs) in beagle dog at 2 mg/kg, po
Type: ADME, organism-based, Canis lupus familiaris
Parameters: dose 2 mg/kg, time < 24 hr, route oral
Conditions: in vivo
quantity: AUC(0-t) at 24 h (µM·h)
Give bare numbers, in µM·h.

Item COc1cc2ncnc(Nc3cccc(Cl)c3F)c2cc1OC(=O)N1CCN(C)C[C@H]1C [AZD-3759] has what recorded AUC(0-t) at 24 h?
4.62

====

Biological target: Proto-oncogene tyrosine-protein kinase Src (Homo sapiens, UniProt P12931)
Sequence (P12931 2-536 limits assumed): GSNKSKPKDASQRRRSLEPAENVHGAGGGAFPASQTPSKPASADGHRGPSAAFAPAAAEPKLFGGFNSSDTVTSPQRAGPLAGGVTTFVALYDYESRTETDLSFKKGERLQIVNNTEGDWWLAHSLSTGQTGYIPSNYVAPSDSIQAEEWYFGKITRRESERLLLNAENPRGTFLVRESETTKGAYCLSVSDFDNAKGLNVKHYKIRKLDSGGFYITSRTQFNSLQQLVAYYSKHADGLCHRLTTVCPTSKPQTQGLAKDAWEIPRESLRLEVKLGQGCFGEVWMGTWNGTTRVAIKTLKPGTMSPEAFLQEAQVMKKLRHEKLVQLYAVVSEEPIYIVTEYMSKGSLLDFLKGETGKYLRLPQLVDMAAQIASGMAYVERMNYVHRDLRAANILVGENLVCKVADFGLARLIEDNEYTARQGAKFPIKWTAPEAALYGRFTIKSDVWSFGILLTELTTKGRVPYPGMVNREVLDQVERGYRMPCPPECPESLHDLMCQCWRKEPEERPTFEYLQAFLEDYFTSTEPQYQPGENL
Assay: Inhibition of recombinant Src (unknown origin) after 40 mins by scintillation counting analysis in presence of [gamma33P]-ATP
quantity: IC50 (nM)
Numbers only, in nM.

Test system Proto-oncogene tyrosine-protein kinase Src (Homo sapiens, UniProt P12931); read-out IC50; what value for COc1cc2ncnc(Nc3cccc(Cl)c3F)c2cc1OC(=O)N1CCN(C)C[C@H]1C ?
622
